Recorded values, source PubChem BioAssay.

System: TRPC4 beta (transient receptor potential cation channel C4), mouse
PROTOCOL SUMMARY: potentiation of DAMGO EC20 TRPC4 response – cell-based, Fluo-4, HEK293 TRPC4beta/mu-opioid, confirmation (AID 2555)
MEASUREMENT CONDITIONS: DAMGO EC20, Fluo-4 calcium flux, at 10 µM
Calls of active or inactive are those of the source.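 How the source made its calls: active means primary screen hit whose calcium fluorescence ratio, in both repeats, exceeds the weak agonist control mean by 3 SD; inactive means the rest.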
Classes used: y (active), n (inactive)

{"COMPOUND": "Cc1cccc(-c2nnc(SCc3nc4ccccc4[nH]3)n2Cc2ccco2)c1", "CAT": "n"}
{"COMPOUND": "COc1cc2nc(=S)n3[nH]c(CCn4nc(C)cc4C)nc3c2cc1OC", "CAT": "n"}
{"COMPOUND": "COc1ccc(NC(=O)c2cccc(N3C(=O)C4CC=C(C)CC4C3=O)c2)c(OC)c1 (stereo unspecified)", "CAT": "n"}
{"COMPOUND": "Cc1ccc(C2(CCNC(C)c3cccs3)CCOC(C(C)C)C2)cc1 (stereo unspecified)", "CAT": "n"}
{"COMPOUND": "CC(C)c1ccc2c(c1)C1Cc3ccccc3C1N2 (stereo unspecified)", "CAT": "n"}
{"COMPOUND": "Cc1ccc(C)c2nc3sc(C(=O)O)cc3cc12", "CAT": "n"}
{"COMPOUND": "Clc1ccc(OCCCc2nc(-c3ccncc3)no2)c(Cl)c1", "CAT": "n"}
{"COMPOUND": "Cc1cc(N2CCCCC2)nc2ccccc12", "CAT": "n"}
{"COMPOUND": "COc1ccc(C(=O)CN2CCN(CCN3C(=O)c4cccc5cccc(c45)C3=O)CC2)cc1", "CAT": "y"}
{"COMPOUND": "Cn1c(-c2ccc(F)cc2)cnc1NCc1ccc(F)cc1F", "CAT": "n"}
{"COMPOUND": "Cc1[nH]n2c(=O)c3c(nc2c1-c1ccccc1)CCC3", "CAT": "n"}

* * *

PROTOCOL SUMMARY: serotonin-gated TRPC4 signal block – cell-based, second counter screen, HEK293 TRPC4/5HT1a, Fluo-4, counter-screen for TRPC4 inhibitor project, confirmation (AID 434978)
MEASUREMENT CONDITIONS: Fluo-4 calcium flux, at 10 µM, serotonin added to trigger calcium flux; active compounds read high
Active and inactive are the calls of the source.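 Rule for the calls: active = primary screen active whose calcium signal fell more than 3 SD beyond the full-serotonin control mean in both duplicate plates; inactive = the rest.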

{"COMPOUND": "CCN1CCN(c2c(Cl)cccc2NC(=O)c2ccc([N+](=O)[O-])cc2)CC1", "inhibition": "inactive"}
{"COMPOUND": "O=C(Nc1ccccc1)C1=C[C@H](C2CCCCC2)C[C@H](OCc2ccc(CO)cc2)O1", "inhibition": "inactive"}
{"COMPOUND": "CC1CN(C)C(C)c2c1oc1ccc(N)cc21 (configuration not stated)", "inhibition": "inactive"}
{"COMPOUND": "COc1cc(C2(c3ccc(O)c(OC)c3)C(=O)Nc3c(C)cc(Br)cc32)ccc1O", "inhibition": "inactive"}
{"COMPOUND": "O=C(C1CCN(S(=O)(=O)c2cccnc2)CC1)N1CCN(c2ccc(Cl)cc2)CC1", "inhibition": "42.4% (active)"}
{"COMPOUND": "O=S(=O)(c1ccc(Oc2ccc(Br)cc2)cc1)N1CCOCC1", "inhibition": "inactive"}
{"COMPOUND": "Cc1ccc(CS(=O)(=O)CCC(=O)NCCC2=CCCCC2)cc1", "inhibition": "inactive"}
{"COMPOUND": "CC(C)n1c(NCc2c[nH]c3ccccc23)nc2ccccc21", "inhibition": "26.4% (active)"}
{"COMPOUND": "CCOc1cc(S(=O)(=O)N2CCN(C(=O)c3ccco3)CC2)ccc1F", "inhibition": "inactive"}
{"COMPOUND": "CCCCN(CC)CCNC(=O)Cn1cc2c(n1)-c1c(oc(C(=O)N3CCCC3)c1C)CC2", "inhibition": "inactive"}
{"COMPOUND": "CCc1cc2c(SCC(=O)N(C)C3CCS(=O)(=O)C3)ncnc2s1 (configuration not stated)", "inhibition": "inactive"}
{"COMPOUND": "Cc1cc(Cl)cc(C)c1OCCCCCn1ccnc1", "inhibition": "inactive"}
{"COMPOUND": "CC1Oc2ccccc2C=C1/C=N/Nc1ccc(C(=O)O)cc1 (configuration not stated)", "inhibition": "38.1% (active)"}
{"COMPOUND": "Fc1ccc(Nc2ncnc3sc4c(c23)CCC4)cc1", "inhibition": "inactive"}
{"COMPOUND": "COC(=O)c1ccc(N2CCN(C)CC2)c(NC(=O)c2ccc(Br)o2)c1", "inhibition": "inactive"}
{"COMPOUND": "CC(C)c1ccc(C(C)NCCS(=O)(=O)c2ccc(Br)cc2)cc1 (configuration not stated)", "inhibition": "inactive"}
{"COMPOUND": "Cc1ccccc1OCCn1c(C)nc2ccccc21", "inhibition": "13.3% (active)"}
{"COMPOUND": "OC(c1ccccc1)(c1ccccc1)C1CCN(C(=S)NC2CCCC2)CC1", "inhibition": "inactive"}
{"COMPOUND": "COc1ccc2nc(NCc3ccccc3)[nH]c2c1", "inhibition": "23.6% (active)"}
{"COMPOUND": "C/C=C(/C)C(=O)O[C@@H]1c2cc(OC)c(OC)c(OC)c2-c2c(cc3c(c2OC)OCO3)C[C@H](C)[C@]1(C)O", "inhibition": "inactive"}
{"COMPOUND": "Cc1[nH]nc(-c2ccc(O)cc2O)c1-c1nc2ccccc2s1", "inhibition": "inactive"}
{"COMPOUND": "C=CCn1cnc2scc(-c3ccc(CC)cc3)c2c1=O", "inhibition": "inactive"}

* * *

STUDY TARGET: Short transient receptor potential channel 4 (Mus musculus) (UniProt Q9QUQ5)
Sequence (Q9QUQ5 whole entry, looked up): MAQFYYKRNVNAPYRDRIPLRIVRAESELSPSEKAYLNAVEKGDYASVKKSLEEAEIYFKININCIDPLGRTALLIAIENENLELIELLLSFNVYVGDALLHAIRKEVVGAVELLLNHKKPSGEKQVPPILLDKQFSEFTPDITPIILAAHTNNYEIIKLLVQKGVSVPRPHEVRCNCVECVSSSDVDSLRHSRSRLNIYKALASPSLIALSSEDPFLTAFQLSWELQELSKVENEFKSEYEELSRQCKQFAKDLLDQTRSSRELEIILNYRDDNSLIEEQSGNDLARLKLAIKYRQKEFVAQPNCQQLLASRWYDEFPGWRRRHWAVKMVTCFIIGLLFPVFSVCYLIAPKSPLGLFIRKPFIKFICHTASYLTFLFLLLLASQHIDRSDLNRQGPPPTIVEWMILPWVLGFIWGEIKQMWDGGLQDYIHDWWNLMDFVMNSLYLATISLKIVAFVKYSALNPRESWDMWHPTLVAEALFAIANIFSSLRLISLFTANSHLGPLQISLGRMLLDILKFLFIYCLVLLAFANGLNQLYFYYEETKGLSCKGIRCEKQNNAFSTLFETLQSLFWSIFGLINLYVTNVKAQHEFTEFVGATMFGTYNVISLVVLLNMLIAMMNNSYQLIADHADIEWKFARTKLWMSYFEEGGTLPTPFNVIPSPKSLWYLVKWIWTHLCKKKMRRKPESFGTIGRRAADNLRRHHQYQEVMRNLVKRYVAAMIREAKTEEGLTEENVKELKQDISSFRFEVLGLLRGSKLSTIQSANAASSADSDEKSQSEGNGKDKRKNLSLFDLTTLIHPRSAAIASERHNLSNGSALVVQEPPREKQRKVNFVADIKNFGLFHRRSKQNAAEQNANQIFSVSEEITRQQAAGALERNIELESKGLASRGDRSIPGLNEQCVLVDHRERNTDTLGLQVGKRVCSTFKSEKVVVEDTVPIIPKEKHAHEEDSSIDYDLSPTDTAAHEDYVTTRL
PROTOCOL SUMMARY: blockers of DAMGO-evoked TRPC4 calcium flux – cell-based, second round, Fluo4, HEK293 TRPC4beta/mu-opioid, 1 µM, confirmation (AID 2637);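 on inhibition: percent of integrated ratio relative to wells lacking test compound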
MEASUREMENT CONDITIONS: at 1 µM; active compounds read high
Calls of active or inactive are those of the source.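 How the source made its calls: active means calcium signal ratio cut to more than 3 SD under the fully stimulated control mean yet still positive, in both repeats and the primary screen; inactive means the rest.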

{"MOLECULE": "COc1ccccc1C1/C(=C(\\O)c2ccc3c(c2)OCCO3)C(=O)C(=O)N1Cc1cccnc1 (stereo unspecified)", "inhibition": "63% (active)"}
{"MOLECULE": "CCN1CCN(c2ccc(S(=O)(=O)N3CCCCC3)cc2NC(=O)c2cccc(F)c2)CC1", "inhibition": "inactive"}
{"MOLECULE": "CCN(CC)CCOC(=O)c1cccc(Br)c1", "inhibition": "inactive"}
{"MOLECULE": "COc1ccc(C(CNC(=O)c2oc3ccc(F)cc3c2C)N2CCCCC2)cc1 (stereo unspecified)", "inhibition": "inactive"}
{"MOLECULE": "COC(=O)c1c(NC(=O)CSc2ncn[nH]2)sc(C)c1C", "inhibition": "inactive"}
{"MOLECULE": "COC(=O)c1ccccc1N=Nc1c(C)[nH][nH]c1=O", "inhibition": "inactive"}
{"MOLECULE": "c1ccc(CN2CCN(c3nc4ccccc4s3)CC2)cc1", "inhibition": "inactive"}
{"MOLECULE": "O=[N+]([O-])c1cc([N+](=O)[O-])c2oc(-c3ccccc3)c(Br)c2c1O", "inhibition": "inactive"}
{"MOLECULE": "Cc1ccc(SC(CC(=O)c2ccc(C(C)(C)C)cc2)C(=O)O)cc1 (stereo unspecified)", "inhibition": "inactive"}
{"MOLECULE": "CC1CCc2nc(NC(=O)CN3CCN(Cc4ccc5c(c4)OCO5)CC3)sc2C1 (stereo unspecified)", "inhibition": "inactive"}
{"MOLECULE": "N#Cc1cccc2c1-c1ccccc1/C2=N/NC(N)=O", "inhibition": "81% (active)"}

* * *

STUDY TARGET: Short transient receptor potential channel 4 (Mus musculus) (UniProt Q9QUQ5)
PROTOCOL SUMMARY: calcium flux activators in TRPC4/5HT1a cells, counter-screen for TRPC4 activator project, cell-based, second counter screen, HEK293 TRPC4/5HT1a, Fluo-4 (AID 434977)
MEASUREMENT CONDITIONS: Fluo-4 calcium flux, at 10 µM
Active and inactive are the calls of the source.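 Rule for the calls: active = calcium signal rise above buffer-control mean plus 5 SD in both duplicates, and also a hit in the primary screen; inactive = the rest.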
Possible outcomes: active, inactive

{"MOLECULE": "CCCN(CCC(=O)Nc1cc(OC)cc(OC)c1)CC1CC1", "CAT": "active"}
{"MOLECULE": "CSCCNCc1cn(-c2ccc(F)cc2F)nc1-c1ccccc1C", "CAT": "inactive"}
{"MOLECULE": "COc1ccc(C(CNC(=O)C2CC2)N(C)C)cc1 (stereo unspecified)", "CAT": "inactive"}
{"MOLECULE": "N#Cc1c(NC(=O)C2CC(Cl)=CCC2C(=O)O)sc2c1CCCCC2 (stereo unspecified)", "CAT": "inactive"}
{"MOLECULE": "CCN(CC)Cc1cc(CCNC(=O)c2ccc(Cl)cc2)ccc1O", "CAT": "inactive"}
{"MOLECULE": "Cc1ccc(S(=O)(=O)N2CCN(c3cc4c(cc3[N+](=O)[O-])n(C)c(=O)n4C)CC2)cc1", "CAT": "inactive"}
